Where do these numbers come from? They come from patent KR20130140557A.

Biological target: T1, IL-6R-Fc 항원 (IL-6R full domain 단백질) (human, UniProt P08887 20-365)
T1 construct: domain: IL-6R full domain; Expressed transiently in HEK293E and purified from the supernatant; also called IL-6R 항원; not shown: Fc part from expression vector pYK 604
T1 sequence (looked up): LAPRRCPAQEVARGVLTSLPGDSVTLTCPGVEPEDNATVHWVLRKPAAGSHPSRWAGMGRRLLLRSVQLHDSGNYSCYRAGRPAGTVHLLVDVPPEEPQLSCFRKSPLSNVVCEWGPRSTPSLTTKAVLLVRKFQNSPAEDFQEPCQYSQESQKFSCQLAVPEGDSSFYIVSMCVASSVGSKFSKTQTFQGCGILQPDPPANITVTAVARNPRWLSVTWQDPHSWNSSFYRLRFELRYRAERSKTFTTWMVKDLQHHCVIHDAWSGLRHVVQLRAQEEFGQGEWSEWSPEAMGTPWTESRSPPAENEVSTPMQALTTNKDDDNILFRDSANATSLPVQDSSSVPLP
Experiment: ELISA, coated IL-6R 100 ng/well, anti-Fab-HRP
Entries and their OD 490 nm at 1.5625 nM antibody values follow.
I only need the number, in OD490, no unit after it.

Below: 3 binders and their reported OD 490 nm at 1.5625 nM antibody.
[
  {
    "binder": "항 IL-6R 단클론 항체 A7 (IgG) (antibody, V domains shown, Phage clone converted to whole IgG) VH: QMQLVESGGGLVQPGTSLRLSCAASGFKFEDYAMHWVRQAPGKGLEWVSGVSWNSGTIAYVDSVKGRFTISRDNAKNSLYLQMNSLRAEDTAVYYCARDFTYFYESSGYYAFDLWGQGTMVTVSS VL: SQLVLTQPPSVSGAPGQRVTISCTGTNSNIGAGYDVHWYQQVPGTTPKLLIYGNTNRPSGVPDRFSGSKSGTSASLAITGLQAEDGGDYYCQSFDSSLTGSVFGTGTKVTVL",
    "measurement_name": "OD 490 nm at 1.5625 nM antibody",
    "numeric_value": 1.17
  },
  {
    "binder": "항 IL-6R 단클론 항체 D2 (IgG) (antibody, V domains shown, Phage clone converted to whole IgG) VH: QVQLVESGAEVKKPGSSVKVSCKGSGDTFPNYAINWVRQAPGQGPEWMGRIIPMLGTSDYAEKFQGRVTITADKSTNTAYMGLNSLRSEDTAVYYCVKGPRYYGTDSYYLEKWGQGTMVTVSS VL: SQLVLTQPPSVSGAPGQTVTISCTGPTIGAGYDVHWYQQLPGAAPKLLIYGNLNRPSGVPDRFSGSKSGTSASLAITDLQAEDEADYYCHTYDSSLSGSWVFGGGTKLTVL",
    "measurement_name": "OD 490 nm at 1.5625 nM antibody",
    "numeric_value": 0.584
  },
  {
    "binder": "항 IL-6R 단클론 항체 F2 (IgG) (antibody, V domains shown, Phage clone converted to whole IgG) VH: QVQLVESGAEVKKPGASVKVSCKASGYTFTNYYMHWVRQAPGQGLEWMGIINPSGGNTGYAQKFQGRVTMTRDMSTSTAYMELSSLRSEDTAVYYCARGLPWGENGLDVWGQGTTVTVSS VL: SQLVLTQPSSVSGAPGQTVTISCTGSSSNIGAGYDVHWYQQLPGTAPKVLIYGDSDRPSGVPDRFSGSKSATSASLAITGLQAEDEADYYCQSYDSSLSAYVFGTGTKVTVL",
    "measurement_name": "OD 490 nm at 1.5625 nM antibody",
    "numeric_value": 2.43
  }
]

Would you kindly look at the next entry?
### Prompt Dear colleague, please send me the reported OD 490 nm at 1.5625 nM antibody for 항 IL-6R 단클론 항체 B10 (IgG) (antibody, V domains shown, Phage clone converted to whole IgG) VH: QVQLVESGGGLVQPGGSLRLSCAASGFIFDDYAMFWVRQVPGKGLEWVAGINWNGNGIGYGDSVRGRFIISRDNARNSLDLQMNSLRAEDTAVYYCARPSLYGGNSEFDLWGQGTLVTVSS VL: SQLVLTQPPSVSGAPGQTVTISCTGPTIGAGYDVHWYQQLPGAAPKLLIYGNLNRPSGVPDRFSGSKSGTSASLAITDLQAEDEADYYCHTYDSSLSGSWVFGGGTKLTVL when you can.
### Response 0.607
